# key: entry, value: folding stability dG
B1: HEEH_KT_rd6_3546 (parent)
chain: SEEDKEREHWERLNRDFELRVLDTTFIAHHAEEVIKLLRWLEK

- Variants of: B1
- Assay remarks: folding stability dG (cDNA display proteolysis); higher = more stable
- Study conditions: PBS, room temperature
The answer consists of two parts: a number and, after it, its unit.

Worked examples, 6 variants total:
E6V    1.56 kcal/mol
F17D    0.606 kcal/mol
L13K    1.4 kcal/mol
R12P    1.08 kcal/mol
H29S    1.59 kcal/mol
L19D    0.732 kcal/mol

Given F26E , respond with its folding stability dG.
0.588 kcal/mol

Hello, please tell me recorded folding stability dG for this one: E32T
1.43 kcal/mol

Give folding stability dG for N14K
1.72 kcal/mol
